Target: Kir3.1/Kir3.4 (Homo sapiens) (UniProt P48549+P48544)
Assay: Inhibition of GTPgammaS-induced activation of GIRK1/4 (unknown origin) expressed in HEK293 cells assessed as decrease in channel current at 10 uM after 2 mins at -40 mV holding potential by automated patch-clamp electrophysiology assay
Type: cell-based
REPORTED_ENDPOINT: inhibition (%)

SMILES_TEXT	TARGET_ENTITY	inhibition (%)
CCC(=O)O[C@@H]1[C@@H]2[C@@H](OC(=O)c3ccccc3)[C@@]3(COC(=O)C(C)C)[C@H]4[C@H](C=C[C@H]3OC(C)=O)C(C)(C)O[C@]4(C)C(=O)[C@@]2(OC(C)=O)C[C@@H]1C	Kir3.1/Kir3.4 (Homo sapiens) (UniProt P48549+P48544)	47
CC(=O)O[C@@H]1[C@H]2[C@@H](OC(=O)C(C)C)[C@@](C)(OC(=O)c3ccccc3)C[C@]2(OC(C)=O)[C@@H](OC(C)=O)[C@]2(C)OC[C@]13C(=O)[C@H](OC(=O)C(C)C)[C@@H]1C[C@](C)(OC(C)=O)[C@@H]1[C@@H]23	Kir3.1/Kir3.4 (Homo sapiens) (UniProt P48549+P48544)	77
CC(=O)O[C@@H]1[C@H]2[C@@H](OC(=O)C(C)C)[C@@H](C)C[C@]2(OC(C)=O)[C@@H](OC(C)=O)[C@]2(C)OC[C@]13C(=O)[C@H](OC(C)=O)[C@@H]1C[C@](C)(OC(C)=O)[C@@H]1[C@@H]23	Kir3.1/Kir3.4 (Homo sapiens) (UniProt P48549+P48544)	61
CC(=O)OC[C@@]12[C@H](OC(=O)c3ccccc3)[C@H]3[C@@H](OC(=O)C(C)C)[C@@H](C)C[C@]3(OC(C)=O)C(=O)[C@@]3(C)OC(C)(C)[C@@H](C=C[C@H]1OC(C)=O)[C@H]23	Kir3.1/Kir3.4 (Homo sapiens) (UniProt P48549+P48544)	61

====

Molecular target: Kir3.1/Kir3.4 (Homo sapiens) (UniProt P48549+P48544)
Assay: Inhibition of GTPgammaS-induced activation of GIRK1/4 (unknown origin) expressed in HEK293 cells assessed as decrease in channel current at 10 uM after 2 mins at -40 mV holding potential by automated patch-clamp electrophysiology assay
Format: cell-based
REPORTED_ENDPOINT: inhibition (%)

Examples with answers:
COMPOUND	inhibition [%]
CCC(=O)O[C@@H]1[C@@H]2[C@@H](OC(C)=O)[C@@]34CO[C@@](C)([C@H](OC(C)=O)[C@@]2(OC(C)=O)C[C@@H]1C)[C@@H]3[C@@H](C(C)(C)OC(C)=O)C=CC4=O	62
CCC(=O)O[C@@H]1[C@@H]2[C@@H](OC(C)=O)[C@@]34CO[C@@](C)([C@H](OC(C)=O)[C@@]2(OC(C)=O)C[C@H]1C)[C@@H]3[C@@H]1[C@@H](C[C@]1(C)OC(C)=O)[C@@H](OC(=O)C(C)C)C4=O	70
CCC(C)C(=O)O[C@H]1C(=O)[C@@]23CO[C@@](C)([C@H](OC(C)=O)[C@@]4(OC(C)=O)C[C@](C)(O)[C@H](OC(=O)C(C)C)[C@@H]4[C@H]2OC(C)=O)[C@@H]3[C@@H]2[C@H]1C[C@]2(C)OC(C)=O (stereo partly drawn)	26
CC(=O)O[C@@H]1[C@H]2[C@@H](OC(=O)C(C)C)[C@@H](C)C[C@]2(OC(C)=O)[C@@H](OC(C)=O)[C@]2(C)OC[C@]13C(=O)C=C[C@H](C(C)(C)OC(C)=O)[C@@H]23 [EUPHORBIAPROLIFERIN C]	69

(I) CC(=O)O[C@@H]1[C@H]2[C@@H](OC(=O)C(C)C)[C@@](C)(OC(=O)c3cccnc3)C[C@]2(OC(C)=O)[C@@H](OC(C)=O)[C@]2(C)OC[C@]13C(=O)[C@H](OC(=O)C(C)C)[C@@H]1C[C@](C)(OC(C)=O)[C@@H]1[C@@H]23
(II) CCC(=O)O[C@@H]1[C@@H]2[C@@H](OC(C)=O)[C@@]34CO[C@@](C)([C@H](OC(C)=O)[C@@]2(OC(C)=O)C[C@]1(C)O)[C@@H]3[C@@H]1[C@@H](C[C@]1(C)OC(C)=O)[C@@H](OC(=O)C(C)CC)C4=O (stereo partly drawn)
input: Which value of inhibition is smaller, the one for I or the one for II ? Mark your selection by writing its label.
output: II
